Origin of measurements: patent US20070072177A1

Molecular target: purified rabies virus glycoprotein (rabies virus ERA strain) (rabies virus strain ERA, UniProt P03524 20-524)
Experiment: phage ELISA on coated purified G protein (ERA), anti-M13-HRP
quantity: OD 492 nm (OD 492 nm)
# value in OD 492 nm; strip the unit string

# binder, OD 492 nm, OD 492 nm
measured = [
    ("SC04-104 (scFv) scFv: AMAQVQLQESGGGVVQPGRSLRLSCAASGFTFSSYGMHWVRQAPGKGLEWVATISYDGNVKDYADSVKGRFTISRDNSKNTLYLQMNSLRTEDTAVYYCAKIVVVTALDAFDIWGQGTMVTVSSGTGGSGGTGSGTGGSTDIQLTQSPSTLSASVGDRVTITCRASQILGHWLPLSWYQQKPGKAPKLLISKASSLESGVPPRFSGSGSGSDFTLTISSLQPDDFATYYCLQYHEYPLTFGGGTKLEIKRAAA", 0.566),
    ("SC04-146 (scFv) scFv: AMAEVQLVQSGGGVVQPGRSLRLSCAASGFTFSSYGMHWVRQAPGKGLEWVATISYDGSIKDYADSEEGRFTISRDNSKNTLYLQMNSLRAEDTAVYYCAKGGKTGEFDYWGQGTLVTVSSGTGGSGGTGSGTGGSTDVVMTQSPATLSVSPGESATLFCRASESVYSNLAWYQHKPGRAPRLLIYGASTRATGIPARFDGTGSGTDFTLTISSLQSEDFAVYYCQQYNDWPITFGQGTRLEIKRAAA", 0.484),
]

Query string: Param item = SC04-018 (scFv) scFv: AMAEVQLVESGPGLVRPSGTLSLTCAVSGGSISSSNWWSWVRQPPGKGLEWIGEIYHSGSTNYNPSLKSRVTISVDKSKNQFSLKLSSVTAADTAVYYCARVSVTTGAFNIWGQGTMVTVSSGTGGSGGTGSGTGGSTQPVLTQPLSASGTPGQRVTISCSGDTSNIGSNTVHWYQRLPGTAPKLLIHNNNQRPSGVPDRFSGAKSGTSASLAISGLQSEDEADYFCAAWDDNLNGYVFGTGTKVTVLGAAA ; retrieve measured OD 492 nm.
Result string: 0.247
